# system: T1, Human CD138-Fc protein (human, UniProt P18827 23-254)
# T1 construct: also called hCD138-Fc
# T1 sequence: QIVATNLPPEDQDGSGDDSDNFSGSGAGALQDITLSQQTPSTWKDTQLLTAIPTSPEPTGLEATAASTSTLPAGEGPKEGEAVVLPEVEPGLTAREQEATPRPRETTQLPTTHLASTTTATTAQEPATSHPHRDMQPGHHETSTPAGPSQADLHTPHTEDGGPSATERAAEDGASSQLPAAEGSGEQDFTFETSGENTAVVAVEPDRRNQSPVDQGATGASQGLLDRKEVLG
# protocol_notes: ELISA, plate-coated human CD138-Fc
# Description: A CD138 binding ELISA was performed with 9 representative humanized antibodies to determine binding to portion of the linear CD138 peptide used for immunization (FIG. 7). […] Coated plates were incubated with various dilutions of each of the 9 representative antibodies overnight and binding was detected with a goat anti-human IgG (H+L)-HRP. EC50s were determined using four parameter fit curves (Table 21). […]
Reported pEC50 values for the following binders.
FYI, pEC50 means -log10 of a concentration in mol per litre.

[[record]]
binder = "F6 f1kf-rep (antibody, V domains shown, Humanized F12P16F6 expressed as whole antibody with human constant regions (kappa light chain)) VH: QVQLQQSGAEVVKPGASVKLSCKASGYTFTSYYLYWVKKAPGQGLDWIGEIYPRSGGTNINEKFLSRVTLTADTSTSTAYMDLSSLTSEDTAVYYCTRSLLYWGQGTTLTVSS VL: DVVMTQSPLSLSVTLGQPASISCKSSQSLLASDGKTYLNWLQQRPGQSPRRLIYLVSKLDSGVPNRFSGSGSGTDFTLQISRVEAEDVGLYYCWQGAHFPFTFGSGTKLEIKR"
result = 9.65


Request: Specify pEC50 for F6 cks-rep (hF6) (antibody, human IgG1, kappa, V domains shown, Humanized IgG1/kappa antibody; also called hF6 (no Fynomer)) VH: QVQLVQSGAEVVKPGASVKLSCKASGYTFTSYYLYWVKKAPGQGLDWIGEIYPRSGGTNINEKFLSRVTLTADTSTSTAYLELSSLTSEDTAVYYCTRSLLYWGQGTTLTVSS VL: DVVMTQTPLSLSVTPGQPASISCKSSQSLLASDGKTYLNWLLQRPGQSPKRLIYLVSKLDSGVPNRFSGSGSGTDFTLQISRVEAEDVGLYYCWQGAHFPFTFGSGTKLEIKR and stop.
Result: 9.70

Request: Entry F6 aks-rep (antibody, V domains shown, Humanized F12P16F6 expressed as whole antibody with human constant regions (kappa light chain)) VH: QVQLVQSGAEVVKPGASVKLSCKASGYTFTSYYLYWVKKAPGQGLDWIGEIYPRSGGTNYAEKFQGRVTLTADTSTSTAYLELSSLTSEDTAVYYCTRSLLYWGQGTTLTVSS VL: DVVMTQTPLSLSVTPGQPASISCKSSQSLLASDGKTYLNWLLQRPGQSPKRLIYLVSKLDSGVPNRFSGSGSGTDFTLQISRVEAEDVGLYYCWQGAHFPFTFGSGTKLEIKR needs its pEC50 filled in; supply it.
Result: 9.01

Request: Report pEC50, nothing else, for this binder: F6 akf-rep (antibody, V domains shown, Humanized F12P16F6 expressed as whole antibody with human constant regions (kappa light chain)) VH: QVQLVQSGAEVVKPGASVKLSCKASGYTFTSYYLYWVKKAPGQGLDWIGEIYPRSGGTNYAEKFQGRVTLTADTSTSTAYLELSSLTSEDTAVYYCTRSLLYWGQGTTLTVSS VL: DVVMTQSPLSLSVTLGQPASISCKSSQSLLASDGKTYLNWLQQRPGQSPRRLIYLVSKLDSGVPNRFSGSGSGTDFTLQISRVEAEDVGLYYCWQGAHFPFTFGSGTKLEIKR
Result: 9.06

Request: Please give the documented pEC50 of F6 f1ka-rep (antibody, V domains shown, Humanized F12P16F6 expressed as whole antibody with human constant regions (kappa light chain)) VH: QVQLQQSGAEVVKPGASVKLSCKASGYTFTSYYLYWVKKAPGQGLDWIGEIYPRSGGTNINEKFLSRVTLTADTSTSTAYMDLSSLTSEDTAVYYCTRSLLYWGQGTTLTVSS VL: DVVMTQTPLSLSVTPGQPASISCKSSQSLLASDGKTYLNWLLQRPGQSPKRLIYLVSKLDSGVPNRFSGSGSGTDFTLQISRVEAEDVGLYYCMQGAHFPFTFGGGTKVEIKR
Result: 9.36
